# System: Lolium perenne (LOLPE)
# test.name: Example B post-emergence herbicidal activity, glasshouse pot test
# Format: in vivo
# experimental.setup: 312 h, rate 250 g/ha, evaluated after 13 days, scale 0-100, read-out: Post-emergence activity LOLPE (100=total damage to plant; 0=no damage to plant)
Cut-off 80% on pest or weed control at 250 g/ha: below means Criterion met, at or above means Criterion not met.

- smiles: "CCc1ccc(-c2ccc(Cl)c(F)c2Cl)cc1C1=C(O)CC(C)(C)CC1=O"
  class.name: "Criterion not met"
- smiles: "CCc1ccc(-c2ccc(Cl)c(C(F)(F)F)c2)cc1C1=C(O)CCCC1=O"
  class.name: "Criterion not met"
- smiles: "CCc1ccc(-c2ccc(Cl)c(C(F)(F)F)c2)cc1C1=C(O)C(C)(C)CC(C)(C)C1=O"
  class.name: "Criterion met"

Hello, is pest or weed control at 250 g/ha of the following compound strictly smaller than 80%? CCc1ccc(-c2ccc(Cl)nc2Cl)cc1C1=C(O)C(C)(C)CCC1=O
Criterion met

Hello, is pest or weed control at 250 g/ha of the following compound strictly smaller than 80%? CCc1ccc(-c2ccc(Cl)cc2C)cc1C1=C(O)CC(C)(C)CC1=O
Criterion met

Hello, is pest or weed control at 250 g/ha of the following compound strictly smaller than 80%? CCc1ccc(-c2ccc(Cl)c(F)c2Cl)cc1C1=C(O)C(C)(C)CCC1=O
Criterion met

Hello, is pest or weed control at 250 g/ha of the following compound strictly smaller than 80%? CCc1ccc(-c2ccc(Cl)c(Cl)c2)cc1C1=C(O)C(C)(C)CC(C)(C)C1=O
Criterion met

Hello, is pest or weed control at 250 g/ha of the following compound strictly smaller than 80%? CCc1ccc(-c2cc(Cl)c(Cl)cc2Cl)cc1C1=C(O)CCCC1=O
Criterion met

Hello, is pest or weed control at 250 g/ha of the following compound strictly smaller than 80%? CCc1ccc(-c2ccc(Cl)cc2C)cc1C1=C(O)C(C)(C)CCC1=O
Criterion met

Hello, is pest or weed control at 250 g/ha of the following compound strictly smaller than 80%? CCc1ccc(-c2ccc(Cl)nc2)cc1C1=C(O)C(C)(C)CCC1=O
Criterion met

Hello, is pest or weed control at 250 g/ha of the following compound strictly smaller than 80%? CCc1ccc(-c2ccc(Cl)c(OC)c2)cc1C1=C(O)C(C)(C)CC(C)(C)C1=O
Criterion met

Hello, is pest or weed control at 250 g/ha of the following compound strictly smaller than 80%? CCc1ccc(-c2ccc(Cl)c(F)c2)cc1C1=C(O)CC(C)(C)CC1=O
Criterion not met
